Origin of the recorded values: patent US7022311B1

Catalogue of molecules with associated % Moisture Absorption
assay: Moisture absorption test (hygroscopic properties) of test carriers; assay type: physicochemical; conditions: Table 3; 25° C., Humidity 90%; 24 Hours
Peptide text beside a SMILES is read from it.
Report only the number, with the unit % understood.

molecule	property-measured	result-number
COC(=O)[C@H](Cc1ccccc1)NC(=O)[C@@H](N)CC(=O)O [Aspartame] (H-Asp-Phe-OMe)	% Moisture Absorption	10.741
OC[C@@H](O)[C@@H](O[C@H]1O[C@H](CO)[C@@H](O)[C@H](O)[C@H]1O)[C@H](O)[C@@H](O)CO [Amalty]	% Moisture Absorption	0.971
OC[C@@H](O)[C@@H](O)CO [Erythritol]	% Moisture Absorption	0.055
OC[C@@H](O)[C@H](O)[C@@H](O)CO [Xylitol]	% Moisture Absorption	3.796
OC[C@H]1O[C@@H](O[C@H]2[C@H](O)[C@@H](O)C(O)O[C@@H]2CO)[C@H](O)[C@@H](O)[C@H]1O (stereo partly drawn) [Lactose 325M, Lactose]	% Moisture Absorption	0.094

# context switch: different molecule, same % Moisture Absorption
Query block: Any idea what % Moisture Absorption was measured for OC[C@@H](O)[C@@H](O)[C@H](O)[C@H](O)CO [D-Mannitol] ?
Result block: 0.672
